Species on record: Rattus norvegicus
EXPERIMENT_DESCRIPTION: Open TG-GATES - Regimen: Single
Assay type: toxicity, organism-based, Sprague-Dawley
Set-up: regimen Single, gender Male, age 6 weeks
REPORTED_CONDITIONS: in vivo, po, 0 mg/kg, 24 h, tissue Plasma, route gavage, dose level Control
This listing pairs molecules with measured TBIL.
Please respond with the number in mg/dL and leave the unit unwritten.

MOLECULE	TBIL / mg/dL
C1CCC(C(CC2CCCCN2)C2CCCCC2)CC1 (stereo unspecified) [PERHEXILINE]	0.014
CN1C(C(=O)Nc2ccccn2)=C(O)c2sc(Cl)cc2S1(=O)=O [LORNOXICAM]	0.2
O=[N+]([O-])c1ccc2c(c1)Cc1ccccc1-2 [2-NITROFLUORENE]	0
C#C[C@]1(O)CC[C@H]2[C@@H]3CCC4=Cc5oncc5C[C@]4(C)[C@H]3CC[C@@]21C [DANAZOL]	0.006

Report TBIL for CN(C)[C@@H]1C(O)=C(C(N)=O)C(=O)[C@@]2(O)C(O)=C3C(=O)c4c(O)cccc4[C@@](C)(O)[C@H]3C[C@@H]12 [TETRACYCLINE] please.
0.4

Report TBIL for Cc1cccc(Nc2ccccc2C(=O)O)c1C [MEFENAMIC ACID] please.
0.2

Report TBIL for CC(=O)Nc1nnc(S(N)(=O)=O)s1 [ACETAZOLAMIDE] please.
0.004

Report TBIL for CC(CN1c2ccccc2Sc2ccccc21)N(C)C (stereo unspecified) [PROMETHAZINE] please.
0.004

Report TBIL for `CCOC(=O)[C@H](CCc1ccccc1)N[C@@H](C)C(=O)N1CCC[C@H]1C(=O)O` please.
0.4

Report TBIL for COc1cc([C@@H]2c3cc4c(cc3[C@@H](O[C@@H]3O[C@@H]5CO[C@@H](C)O[C@H]5[C@H](O)[C@H]3O)[C@H]3COC(=O)[C@H]23)OCO4)cc(OC)c1O [ETOPOSIDE] please.
0.3

Report TBIL for Clc1c(Cl)c(Cl)c(Cl)c(Cl)c1Cl [PERCHLOROBENZENE] please.
0.1
